Reported TGI values are given for each entry in this list.
System: NCI-H522 lung
Assay: NCI tumour cell line growth inhibition, 48 h
OBSERVABLE: TGI

>>> readout_value("Oc1ccc(Cl)cc1N=Nc1c(O)ccc2ccccc12")
"> 100 µM"
>>> readout_value("C=C1[C@H](O)C[C@@H](C(C)C(O)CC=C(C)C)[C@@H](O)[C@@H]2C(C)=CC[C@@H]12 (stereo not given in full)")
"86.4 µM"
>>> readout_value("CN1C(=O)c2c(c3c4ccccc4n(C)c3c3c2c2ccccc2n3C)C1=O")
"> 100 µM"
>>> readout_value("Cc1[nH]c(-c2ccccc2)c(O)c1C(=O)OC1CC(C)CCC1C(C)C (stereo not given)")
"26.6 µM"
>>> readout_value("C#CCN1C(=O)CN2C(Cl)(Cl)C2(c2ccccc2)c2cc(Cl)ccc21 (stereo not given)")
"75.2 µM"
>>> readout_value("C[C@]12CC[C@@H]3c4cc(C=O)c(OCc5ccccc5)cc4CC[C@H]3[C@@H]1CCC2OCc1ccccc1 (stereo not given in full)")
"> 100 µM"
>>> readout_value("Nc1ncnc2c1ncn2Cc1ccc(CCl)cc1")
"51.9 µM"
>>> readout_value("Cc1ccc(S(=O)(=O)N(CC(O)COc2ccccc2)c2ccccc2Cl)cc1 (stereo not given)")
"25.1 µM"
>>> readout_value("Cc1c2cc[n+](C)cc2c(C)c2c1[nH]c1ccc(OC(C)(C)C)cc12")
"> 100 µM"
>>> readout_value("COc1c(C(=O)CC2c3c(cc4oc(C)cc(=O)c4c3OC)OC(=N)C2c2nc3ccccc3[nH]2)c(O)c(OC)c2occc12 (stereo not given)")
"> 100 µM"

----------
Test system: HT29 colon
Test: NCI tumour cell line growth inhibition, 48 h
Reported TGI values are given for each entry in this list.
OBSERVABLE: TGI

>>> readout_value("COc1ccc2nc3c(nc2c1)C(C)(C)C=C3c1ccc(Br)cc1")
"> 100 µM"
>>> readout_value("C#CCN1C(=O)CN2C(Cl)(Cl)C2(c2ccccc2)c2cc(Cl)ccc21 (centres undefined)")
"> 100 µM"
>>> readout_value("CC(=O)Nc1ccc(S(=O)(=O)Nc2cnc3ccccc3n2)cc1")
"> 100 µM"
>>> readout_value("O=C(O)C(=Cc1ccc(-c2ccc([N+](=O)[O-])cc2)o1)C(=O)O")
"> 100 µM"
>>> readout_value("COc1ccc(C2[C@@H](Cl)C(=O)N2c2ccc(OC)cc2)cc1 (some centres undefined)")
"> 100 µM"
>>> readout_value("Cc1ccc(S(=O)(=O)N(CC(O)COc2ccccc2)c2ccccc2Cl)cc1 (centres undefined)")
"31.9 µM"
>>> readout_value("Oc1ccccc1-c1cnnc(-c2ccccc2O)c1")
"64.3 µM"
>>> readout_value("CC(NC(=O)C(NC(=O)C(NC(=O)C(F)(F)F)C(C)C)C(C)C)C(=O)Oc1c(Cl)c(Cl)c(Cl)c(Cl)c1Cl (centres undefined)")
"> 100 µM"
>>> readout_value("COc1cccc(/C=C/C(=O)c2cc3c(N)c(C(=O)Nc4ccccc4)sc3nc2C)c1")
"3.42 µM"
>>> readout_value("O=S(=O)(O)c1ccc([Se][Se]c2ccc(S(=O)(=O)O)cc2)cc1")
"> 100 µM"
>>> readout_value("C=C1CC2(CC(c3ccccc3C)OC(c3ccccc3C)C2)OC1=O (centres undefined)")
"3.53 µM"
>>> readout_value("CC(=O)[C@H]1CC[C@@H]2[C@]1(C)CC=C1[C@]23C=C[C@]2(C[C@@H](O)CC[C@]12C)C(C(=O)O)C3C(=O)O (some centres undefined)")
"> 100 µM"
>>> readout_value("CSCCC(NOC(=O)Cc1ccccc1)P(=O)(O)c1ccccc1 (centres undefined)")
"> 100 µM"
>>> readout_value("COc1cc(N2CCN(C(C)C)CC2)ccc1Nc1nc(Nc2ccc(F)cc2C(N)=O)c2cc[nH]c2n1")
"2.88 µM"
>>> readout_value("O=C(NNC(=O)c1ccccc1O)c1cccs1")
"> 100 µM"
>>> readout_value("c1ccc2c(c1)CCCc1nnc3nc4ccccc4n3c1-2")
"82.5 µM"
>>> readout_value("CCOC(=O)/C(C(N)=O)=C(/O)c1cnccn1")
"> 100 µM"
>>> readout_value("CN1C(=O)c2c(c3c4ccccc4n(C)c3c3c2c2ccccc2n3C)C1=O")
"> 100 µM"
>>> readout_value("COc1ccc(C2=Nn3c(nc4sc5c(c4c3=O)CCCC5)SC2)cc1")
"> 100 µM"
>>> readout_value("CC(C)(C)c1ccc(OCCOc2ccc(C(C)(C)C)cc2NC=O)c(NC=O)c1")
"7.32 µM"
>>> readout_value("C/C(COc1ccccc1)=N\\NC(N)=S")
"> 100 µM"
>>> readout_value("COc1cc(OC)c(OC)cc1/C=C/c1ccc2ccccc2n1")
"> 10 µM"
>>> readout_value("O=c1[nH]c(C2CCCCC2)nc2ccc(Cl)cc12")
"> 100 µM"
>>> readout_value("O=C1NC(=O)/C(=C/c2ccc3nccc(-c4ccncc4)c3c2)S1")
"6.29 µM"
>>> readout_value("O=C(N/N=C/c1ccc(O)cc1)NNCCO")
"> 100 µM"
>>> readout_value("COc1cc([C@@H]2c3cc4c(cc3[C@H](OC3OC5COC(C(C)C)OC5C(O)C3O)C3COC(=O)[C@@H]32)OCO4)cc(OC)c1OC (some centres undefined)")
"7.11 µM"
>>> readout_value("CN(C)CCNC(=O)c1cccc2c(NC(CCCN=C(N)N)C(=O)O)c3ccccc3nc12 (centres undefined)")
"14.1 µM"
>>> readout_value("N/C(=N/O)NOCCC(N)C(=O)O (centres undefined)")
"> 100 µM"
>>> readout_value("OCC1OC(N2CCN(C3OC(CO)C(O)C(O)C3O)CC2)C(O)C(O)C1O (centres undefined)")
"> 100 µM"

----------
Tested on: MDA-MB-231 breast
Test: NCI tumour cell line growth inhibition, 48 h
Reported log10(TGI) values are given for each entry in this list.
OBSERVABLE: log10(TGI) (log10 of the value in µM)

>>> readout_value("COc1ccc(C2CC(=O)Nc3c2c(C)nn3-c2nc3ccccc3[nH]2)cc1OC (stereo not given)")
1.32
>>> readout_value("OCC1OC(n2cnc3cc(Cl)c(Cl)cc32)C(O)C1O (stereo not given)")
1.78
>>> readout_value("COc1cc(N2CCN(C(C)C)CC2)ccc1Nc1nc(Nc2ccc(F)cc2C(N)=O)c2cc[nH]c2n1")
0.86
>>> readout_value("C=C1C(=O)O[C@H]2[C@H]1CC/C(COC(=O)NCCc1ccc(Br)cc1)=C\\CC[C@@]1(C)O[C@@H]21")
0.49
>>> readout_value("COc1cc([C@@H]2c3cc4c(cc3[C@H](OC3OC5COC(C(C)C)OC5C(O)C3O)C3COC(=O)[C@@H]32)OCO4)cc(OC)c1OC (stereo not given in full)")
1.28
>>> readout_value("Cc1cc(S(=O)(=O)Nc2nc3ccccc3s2)c(SCc2ccccc2)cc1Cl")
1.58
>>> readout_value("Nc1nc(N)c2c(n1)NC(c1ccc(Cl)cc1)C1CCc3ccccc3C1=N2 (stereo not given)")
1.34
>>> readout_value("CC(=O)O[C@H]1C(=O)[C@@]2(C)C(C(OC(=O)c3ccccc3)[C@]3(O)CC(OC(=O)C(O)C(NC(=O)c4cccc(Cl)c4)c4ccccc4)C(C)=C1C3(C)C)[C@]1(OC(C)=O)CO[C@@H]1C[C@@H]2O (stereo not given in full)")
0.94
>>> readout_value("Clc1ccc(Nc2nnc(COc3ccccc3)c3ccccc23)cc1")
0.84

----------
System: XF 498 CNS
Assay: NCI tumour cell line growth inhibition, 48 h
OBSERVABLE: TGI (µM)

>>> readout_value("O=C(C#Cc1ccccc1)Nc1ccccc1CC(c1c[nH]c2ccccc12)c1c[nH]c2ccccc12")
70
>>> readout_value("O=C1C(Nc2ccc(S(=O)(=O)Nc3cnc4ccccc4n3)cc2)=CC(=Nc2ccc(S(=O)(=O)Nc3cnc4ccccc4n3)cc2)c2ccccc21")
59.2
>>> readout_value("NC1=NN(c2ccccc2)C(=O)C1/C(=N\\NC(=O)c1cc2ccccc2cc1O)C(=O)Nc1ccc(Cl)c(Cl)c1 (centres undefined)")
71.6
>>> readout_value("COc1ccc(/C=C2\\CCC(C)(CN(C)C)C2=O)cc1Br (centres undefined)")
33.1

----------
Tested on: A498 renal
Assay: NCI tumour cell line growth inhibition, 48 h
OBSERVABLE: GI50

>>> readout_value("COc1cc2cc(C(=O)Nc3ccccc3)c(N)nc2cc1OC")
"4.7 µM"
>>> readout_value("CN1CCN(CCCn2c3c(sc4ncccc43)c(=O)n3nnc(-c4ccccc4)c23)CC1")
"6.7 µM"
>>> readout_value("C/C=C1/CN2CCC34c5ccccc5N5C(=O)C(C6CC78c9ccccc9N9C(=O)C=CC(C%10CC7N6C/C%10=C/C)C98)=CC(C1CC23)C54 (stereo not given)")
"10.7 µM"
>>> readout_value("Cc1cccc(Nc2ncc(-c3ccccc3)o2)c1")
"> 25 µM"
>>> readout_value("CCCCCCCC(=O)[O-].N.N.N.N.N.[Co+3].[O-][Cl+3]([O-])([O-])[O-]")
"> 100 µM"
>>> readout_value("CCN1C(=O)N(CC)C2C1NN=c1s/c(=C\\c3ccc(Br)cc3)c(=O)n12 (stereo not given)")
"0.0833 µM"
>>> readout_value("CCCN1CCN(c2ccc3nc(-c4ccc5nc(-c6ccc(OCC)cc6)[nH]c5c4)[nH]c3c2)CC1")
"1.3 µM"
>>> readout_value("O=C(O)[C@@H](Cc1ccccc1)NS(=O)(=O)c1ccc(-c2ccccc2)cc1")
"59.6 µM"
>>> readout_value("Cc1ccc2c(c1)n([O-])c(C(F)(F)F)c(C(=O)c1ccco1)[n+]2=O")
"1.21 µM"
>>> readout_value("CC1(/C=C/c2ccc(-c3ccccc3)cc2)CCn2cnc3ncnc(c32)N1O (stereo not given)")
"0.0387 µM"
